Could you please report measured RAMPO Score for the items listed next?
- system name: T1, P3028 (VFDEFKPLVEEPQNLIK, SEQ ID NO: 185), His-tagged (human)
- T1 construct: Synthetic fragment of human serum albumin (positions 397-413); used in solution as His-tagged peptide PGE73; also called PGE73; not shown: His-tag
- T1 peptide: VFDEFKPLVEEPQNLIK
- test method notes: PEPSCAN ELISA; peptide on chip, His-P3028 added;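 note: peroxidase color development with ABTS and H2O2 substrate, OD405 imaged by CCD camera with image processing and taken as raw values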
Returns: string containing the numeric result and its unit.

{"columns": ["binder", "observed result"],
 "data": [
  ["KKLDTFFRKLSLFTER [KKLDTFFRKLSLFTER (SEQ ID NO: 330)]", "365 rampo units"],
  ["KKLDTKFVKLSLFTER [KKLDTKFVKLSLFTER (SEQ ID NO: 460)]", "337 rampo units"],
  ["KKLDRFFVKLSLFTER [KKLDRFFVKLSLFTER (SEQ ID NO: 309)]", "430 rampo units"],
  ["KKLDTFFVKLSQFTER [KKLDTFFVKLSQFTER (SEQ ID NO: 355)]", "651 rampo units"],
  ["KALDTFFVKLSLFTER [KALDTFFVKLSLFTER (SEQ ID NO: 485)]", "309 rampo units"],
  ["KKLDTFFVKLSLMTER [KKLDTFFVKLSLMTER (SEQ ID NO: 367)]", "1190 rampo units"]
]}

## Input What does the record list as RAMPO Score for KKLDTPFVKLSLFTER [KKLDTPFVKLSLFTER (SEQ ID NO: 317)] ?
## Output 497 rampo units

src = patent US20180177842A1
